MEASURED_TARGET: T1, AFP158/HLA-A*02:01 complex (human)
T1 construct: flowed as analyte in SPR
ASSAY_NAME: SPR, crude scFv captured, pMHC analyte;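 note: pMHC analyte injected at three concentrations, association phase of one hundred seconds, then running buffer for dissociation, rates fitted from both curves, KD derived from the rates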
Item-by-item account of koff

Some solved entries appear below for comparison.
AS170036 VL1VH1-56Y108A (scFv, also called 16-AS170036 VL1VH1-56Y108A) scFv: QSALTQPRSVSGSPGQSVTISCAGTSSDVGSENYVSWYQQHPGKAPKLMIYQVNKRASGVPDRFSGSKSGNTASLTISGLQAEDEADYYCASYRSSDHNIVFGGGTKLTVLGGGGSGGGGSGGGGSEVQLVESGGGLVQPGGSLRLSCAASGFTFSSYAMSWVRQAPGKGLEWVSTINSGTYSPYYADSVKGRFTISRDNSKNTLYLQMNSLRAEDTAVYYCAKNFFDGSWFLAPPAMDYWGQGTLVTVSSHHHHHH: 0.00093 s⁻¹
AS170036 VL1VH1-57M98Q (scFv, also called 15-AS170036 VL1VH1-57M98Q) scFv: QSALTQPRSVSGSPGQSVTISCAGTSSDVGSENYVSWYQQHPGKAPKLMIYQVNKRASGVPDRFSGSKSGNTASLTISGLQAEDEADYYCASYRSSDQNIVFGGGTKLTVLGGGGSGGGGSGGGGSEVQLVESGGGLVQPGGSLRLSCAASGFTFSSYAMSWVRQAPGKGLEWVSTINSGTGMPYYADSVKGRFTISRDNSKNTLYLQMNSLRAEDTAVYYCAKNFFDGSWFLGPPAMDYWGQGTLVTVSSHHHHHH: 0.0067 s⁻¹

What measured koff goes with AS170036 VL1VH1-56N108D (scFv, also called 20-AS170036 VL1VH1-56N108D) scFv: QSALTQPRSVSGSPGQSVTISCAGTSSDVGSENYVSWYQQHPGKAPKLMIYQVNKRASGVPDRFSGSKSGNTASLTISGLQAEDEADYYCASYRSSDHNIVFGGGTKLTVLGGGGSGGGGSGGGGSEVQLVESGGGLVQPGGSLRLSCAASGFTFSSYAMSWVRQAPGKGLEWVSTINSGTNSPYYADSVKGRFTISRDNSKNTLYLQMNSLRAEDTAVYYCAKNFFDGSWFLDPPAMDYWGQGTLVTVSSHHHHHH ? 0.0046 s⁻¹

And then AS170036 VL1VH1-56N108S (scFv, also called 21-AS170036 VL1VH1-56N108S) scFv: QSALTQPRSVSGSPGQSVTISCAGTSSDVGSENYVSWYQQHPGKAPKLMIYQVNKRASGVPDRFSGSKSGNTASLTISGLQAEDEADYYCASYRSSDHNIVFGGGTKLTVLGGGGSGGGGSGGGGSEVQLVESGGGLVQPGGSLRLSCAASGFTFSSYAMSWVRQAPGKGLEWVSTINSGTNSPYYADSVKGRFTISRDNSKNTLYLQMNSLRAEDTAVYYCAKNFFDGSWFLSPPAMDYWGQGTLVTVSSHHHHHH , what is it? 0.0067 s⁻¹

And then AS170036 VL1VH1-57H98I (scFv, also called 08-AS170036 VL1VH1-57H98I) scFv: QSALTQPRSVSGSPGQSVTISCAGTSSDVGSENYVSWYQQHPGKAPKLMIYQVNKRASGVPDRFSGSKSGNTASLTISGLQAEDEADYYCASYRSSDINIVFGGGTKLTVLGGGGSGGGGSGGGGSEVQLVESGGGLVQPGGSLRLSCAASGFTFSSYAMSWVRQAPGKGLEWVSTINSGTGHPYYADSVKGRFTISRDNSKNTLYLQMNSLRAEDTAVYYCAKNFFDGSWFLGPPAMDYWGQGTLVTVSSHHHHHH , what is it? 0.0036 s⁻¹
